Test system: Beet Armyworm (Spodoptera exigua, LAPHEG)
PROCEDURE_DETAILS: Bioassay on Beet Armyworm (BAW), 128-well diet tray assay
Type: in vivo
MEASUREMENT_SETUP: 168 h, 50 μg/cm^2 on artificial diet, second instar BAW larvae, 25° C., five to seven days, average of eight wells, read-out: BAW % Control (or Mortality) rating
Measured mortality at 50 µg/cm2 values are reported for all entries that follow.

COMPOUND	mortality at 50 µg/cm2 / %
FC(F)(F)Oc1ccc(C2CSC(Nc3ccc(-c4ncn(-c5ccc(C(F)(F)F)cc5)n4)cc3)=N2)cc1 (stereo not shown)	0
FC(F)(F)Oc1ccc(-n2cnc(-c3ccc(NC4=NC(c5ccc(C(F)(F)F)cc5)CS4)cc3)n2)cc1 (stereo not shown)	0
COc1ccc(C2COC(Nc3ccc(-c4ncn(-c5ccc(C(F)(F)F)cc5)n4)cc3)=N2)cc1 (stereo not shown)	0

====

Measured mortality at 50 µg/cm2 values are reported for all entries that follow.
Tested on: Beet Armyworm (Spodoptera exigua, LAPHEG)
PROCEDURE_DETAILS: Bioassay on Beet Armyworm (BAW), 128-well diet tray assay
Assay type: in vivo
MEASUREMENT_SETUP: 168 h, 50 μg/cm^2 on artificial diet, second instar BAW larvae, 25° C., five to seven days, average of eight wells, read-out: BAW % Control (or Mortality) rating

COMPOUND	mortality at 50 µg/cm2
FC(F)(F)Oc1ccc(-n2cnc(-c3ccc(NC4=NC(c5ccccc5Cl)CO4)cc3)n2)cc1 (stereo not shown)	50 to 100%
FC(F)(F)Oc1ccc(-n2cnc(-c3ccc(NC4=N[C@@H](c5ccccc5)CO4)cc3)n2)cc1	50 to 100%
FC(F)(F)c1ccc(-n2cnc(-c3ccc(NC4=NC(c5ccc(Cl)cc5)CS4)cc3)n2)cc1 (stereo not shown)	0%
FC(F)(F)c1ccc(-n2cnc(-c3ccc(NC4=NC(c5ccccc5Cl)CO4)cc3)n2)cc1 (stereo not shown)	0%

====

Recorded mortality at 50 µg/cm2 for the following compounds
Tested on: Beet Armyworm (Spodoptera exigua, LAPHEG)
PROCEDURE_DETAILS: Bioassay on Beet Armyworm (BAW), 128-well diet tray assay
Format: in vivo
MEASUREMENT_SETUP: 168 h, 50 μg/cm^2 on artificial diet, second instar BAW larvae, 25° C., five to seven days, average of eight wells, read-out: BAW % Control (or Mortality) rating
READOUT_LABEL: mortality at 50 µg/cm2

COMPOUND	RESULT
Cc1ccc(C2CSC(Nc3ccc(-c4ncn(-c5ccc(C(F)(F)F)cc5)n4)cc3)=N2)cc1 (stereo not drawn)	0%
FC(F)(F)Oc1ccc(C2COC(Nc3ccc(-c4ncn(-c5ccc(C(F)(F)F)cc5)n4)cc3)=N2)cc1 (stereo not drawn)	50 to 100%
FC(F)(F)Oc1ccc(-n2cnc(-c3ccc(NC4=NC(c5ccc(Br)cc5)CS4)cc3)n2)cc1 (stereo not drawn)	0%
FC(F)(F)c1ccc(-n2cnc(-c3ccc(NC4=NC(c5ccc(Br)cc5)CS4)cc3)n2)cc1 (stereo not drawn)	0%
FC(F)(F)Oc1ccc(-n2cnc(-c3ccc(NC4=NC(c5ccc(Cl)cc5)CO4)cc3)n2)cc1 (stereo not drawn)	50 to 100%
FC(F)(F)Oc1ccc(-n2cnc(-c3ccc(NC4=NC(c5ccccc5Cl)CS4)cc3)n2)cc1 (stereo not drawn)	50 to 100%
FC(F)(F)c1ccc(C2CSC(Nc3ccc(-c4ncn(-c5ccc(C(F)(F)F)cc5)n4)cc3)=N2)cc1 (stereo not drawn)	0 to 50%
FC(F)(F)c1ccc(-n2cnc(-c3ccc(NC4=NC(c5cccc(Cl)c5)CO4)cc3)n2)cc1 (stereo not drawn)	50 to 100%
FC(F)(F)c1ccc(-n2cnc(-c3ccc(NC4=NC(c5ccccc5Cl)CS4)cc3)n2)cc1 (stereo not drawn)	50 to 100%
FC(F)(F)Oc1ccc(-n2cnc(-c3ccc(NC4=N[C@H](c5ccccc5)CCO4)cc3)n2)cc1	0%
Cc1ccc(C2COC(Nc3ccc(-c4ncn(-c5ccc(C(F)(F)F)cc5)n4)cc3)=N2)cc1 (stereo not drawn)	0%
Fc1ccc(C2CSC(Nc3ccc(-c4ncn(-c5ccc(OC(F)(F)F)cc5)n4)cc3)=N2)cc1 (stereo not drawn)	0 to 50%
FC(F)(F)c1ccc(-n2cnc(-c3ccc(NC4=NC(c5ccc(Cl)cc5)CO4)cc3)n2)cc1 (stereo not drawn)	50 to 100%
FC(F)(F)c1ccc(-n2cnc(-c3ccc(NC4=NC(c5ccccc5)CS4)cc3)n2)cc1 (stereo not drawn)	50 to 100%
FC(F)(F)Oc1ccc(-n2cnc(-c3ccc(NC4=NC(c5ccc(C(F)(F)F)cc5)CCO4)cc3)n2)cc1 (stereo not drawn)	50 to 100%

====

Each item that follows carries a reported mortality at 50 µg/cm2.
Tested on: Beet Armyworm (Spodoptera exigua, LAPHEG)
PROCEDURE_DETAILS: Bioassay on Beet Armyworm (BAW), 128-well diet tray assay
Assay type: in vivo
MEASUREMENT_SETUP: 168 h, 50 μg/cm^2 on artificial diet, second instar BAW larvae, 25° C., five to seven days, average of eight wells, read-out: BAW % Control (or Mortality) rating

COMPOUND	TARGET_UNDER_TEST	mortality at 50 µg/cm2 / %
FC(F)(F)c1ccc(-n2cnc(-c3ccc(NC4=NC(c5ccccc5)CO4)cc3)n2)cc1 (stereo not shown)	Beet Armyworm (Spodoptera exigua, LAPHEG)	0
COc1ccc(C2CSC(Nc3ccc(-c4ncn(-c5ccc(C(F)(F)F)cc5)n4)cc3)=N2)cc1 (stereo not shown)	Beet Armyworm (Spodoptera exigua, LAPHEG)	0
Fc1ccc(C2CSC(Nc3ccc(-c4ncn(-c5ccc(C(F)(F)F)cc5)n4)cc3)=N2)cc1 (stereo not shown)	Beet Armyworm (Spodoptera exigua, LAPHEG)	0
FC(F)(F)Oc1ccc(-n2cnc(-c3ccc(NC4=NC(c5ccc(Cl)cc5)CS4)cc3)n2)cc1 (stereo not shown)	Beet Armyworm (Spodoptera exigua, LAPHEG)	0

====

System: Green Peach Aphid (Myzus persicae, MYZUPE)
PROCEDURE_DETAILS: Bioassay on Green Peach Aphid (GPA), foliar spray on cabbage seedlings
Assay type: in vivo
MEASUREMENT_SETUP: 72 h, 200 ppm spray on infested cabbage seedlings, graded after three days, Abbott corrected % control, read-out: GPA % Control (or Mortality) rating
READOUT_LABEL: mortality at 200 ppm (%)

COMPOUND	READOUT_LABEL	NUMERIC_RESULT
FC(F)(F)c1ccc(-n2cnc(-c3ccc(NC4=NC(c5ccccc5Cl)CO4)cc3)n2)cc1 (stereo not shown)	mortality at 200 ppm	0
FC(F)(F)c1ccc(-n2cnc(-c3ccc(NC4=NC(c5ccccc5Cl)CS4)cc3)n2)cc1 (stereo not shown)	mortality at 200 ppm	0

====

Listed below: mortality at 50 µg/cm2 values for each entry.
Tested on: Beet Armyworm (Spodoptera exigua, LAPHEG)
PROCEDURE_DETAILS: Bioassay on Beet Armyworm (BAW), 128-well diet tray assay
Assay type: in vivo
MEASUREMENT_SETUP: 168 h, 50 μg/cm^2 on artificial diet, second instar BAW larvae, 25° C., five to seven days, average of eight wells, read-out: BAW % Control (or Mortality) rating

MOLECULE	mortality at 50 µg/cm2 [%]
Cc1ccc(C2COC(Nc3ccc(-c4ncn(-c5ccc(OC(F)(F)F)cc5)n4)cc3)=N2)cc1 (stereo not shown) [Compound F4]	0
Cc1ccc(C2CSC(Nc3ccc(-c4ncn(-c5ccc(OC(F)(F)F)cc5)n4)cc3)=N2)cc1 (stereo not shown) [Compound F22]	0
FC(F)(F)Oc1ccc(-n2cnc(-c3ccc(NC4=NC(c5ccccc5)CS4)cc3)n2)cc1 (stereo not shown) [Compound F23]	0

====

Measured mortality at 200 ppm, listed per entry.
System: Green Peach Aphid (Myzus persicae, MYZUPE)
PROCEDURE_DETAILS: Bioassay on Green Peach Aphid (GPA), foliar spray on cabbage seedlings
Assay type: in vivo
MEASUREMENT_SETUP: 72 h, 200 ppm spray on infested cabbage seedlings, graded after three days, Abbott corrected % control, read-out: GPA % Control (or Mortality) rating

COMPOUND	mortality at 200 ppm
FC(F)(F)Oc1ccc(-n2cnc(-c3ccc(NC4=NC(c5ccc(C(F)(F)F)cc5)CO4)cc3)n2)cc1 (centres unmarked) [Compound F5]	80 to 100%
COc1ccc(C2CSC(Nc3ccc(-c4ncn(-c5ccc(C(F)(F)F)cc5)n4)cc3)=N2)cc1 (centres unmarked) [Compound F32]	0%
COc1ccc(C2COC(Nc3ccc(-c4ncn(-c5ccc(C(F)(F)F)cc5)n4)cc3)=N2)cc1 (centres unmarked) [Compound F12]	0%
FC(F)(F)Oc1ccc(-n2cnc(-c3ccc(NC4=NC(c5ccccc5)CO4)cc3)n2)cc1 (centres unmarked) [Compound F7]	80 to 100%
FC(F)(F)Oc1ccc(-n2cnc(-c3ccc(NC4=NC(c5ccccc5Cl)CS4)cc3)n2)cc1 (centres unmarked) [Compound F30]	0%
COc1ccc(C2CSC(Nc3ccc(-c4ncn(-c5ccc(OC(F)(F)F)cc5)n4)cc3)=N2)cc1 (centres unmarked) [Compound F21]	0%
Fc1ccc(C2CSC(Nc3ccc(-c4ncn(-c5ccc(OC(F)(F)F)cc5)n4)cc3)=N2)cc1 (centres unmarked) [Compound F24]	0%
Cc1ccc(C2COC(Nc3ccc(-c4ncn(-c5ccc(C(F)(F)F)cc5)n4)cc3)=N2)cc1 (centres unmarked) [Compound F13]	0%
Cc1ccc(C2CCOC(Nc3ccc(-c4ncn(-c5ccc(OC(F)(F)F)cc5)n4)cc3)=N2)cc1 (centres unmarked) [Compound F44]	80 to 100%
Cc1cc(C2CSC(Nc3ccc(-c4ncn(-c5ccc(C(F)(F)F)cc5)n4)cc3)=N2)ccc1Cl (centres unmarked) [Compound F42]	0%
FC(F)(F)c1ccc(-n2cnc(-c3ccc(NC4=NC(c5ccc(Br)cc5)CS4)cc3)n2)cc1 (centres unmarked) [Compound F37]	0%
